Test system: KM-20L2
Run description: NCI tumour cell line growth inhibition, 48 h
Activity calls are given as the source filed them. Rule as the data show it: active = GI50 up to about 1.1 µM and inactive = higher.
Task for the reader: assign each of the following compounds its reported GI50.

# GI50 of COc1ccc2c(c1)[n+]([O-])c(-c1ccc(OC)c(OC)c1)c(N)[n+]2[O-] = 42 µM (inactive)

# GI50 of Cn1c(=O)c(C(=O)NC23CC4CC(CC(C4)C2)C3)c(O)c2ccccc21 = 28.9 µM (inactive)

# GI50 of CCN(CC)CCOc1ccc(C(O)(Cc2ccc(OC)cc2)c2ccccc2)cc1 (stereo not given) = 3.24 µM (inactive)

# GI50 of O[C@H]1[C@H]2[C@H](O)CCCN2C[C@H]1O = > 100 µM (inactive)

# GI50 of COc1ccc2c(c1)CC[C@@H]1C2CC[C@]2(C)C(=N\O)/C(=N/O)CC12 (stereo not given in full) = 6.21 µM (inactive)

###

Test system: LOX IMVI
Run description: NCI tumour cell line growth inhibition, 48 h
The source made the active and inactive calls. No stated cut-off is given here; in the data, active = GI50 up to about 1.1 µM and inactive = higher.
Your reply should match one of these outcome classes. true (1) (active), false (0) (inactive)

Tell me the recorded outcome of this test for O=C(CC(C(=O)c1ccoc1)c1ccco1)c1ccco1 (centres undefined) .
false (0)

Tell me the recorded outcome of this test for CCOP(=O)(/C=C/n1cnc2c(=O)n(C(C)=O)c(N)nc21)OCC .
false (0)

Tell me the recorded outcome of this test for O=C1/C(=C/c2cccc([N+](=O)[O-])c2)N=C(c2ccccc2)N1c1nc2c(Cl)cc(Cl)cc2s1 .
false (0)

Tell me the recorded outcome of this test for CCN(CC)CCOc1ccc(C(O)(Cc2ccc(OC)cc2)c2ccccc2)cc1 (centres undefined) .
false (0)

Tell me the recorded outcome of this test for CC(=O)c1ccccc1NP(=O)(c1ccccc1)c1ccccc1 .
false (0)

Tell me the recorded outcome of this test for O=C1N/N=C\Nc2ccc(cc2)S(=O)(=O)c2ccc(cc2)/N=C\NNC1=O .
false (0)

Tell me the recorded outcome of this test for Clc1cc(Cl)c2cc3cccc[n+]3cc2c1Cl .
false (0)

Tell me the recorded outcome of this test for C=CCOC1OC(CS(=O)(=O)O)C(O)C(O)C1O (centres undefined) .
false (0)

Tell me the recorded outcome of this test for CCC1(O)C(=O)OCc2c1cc1n(c2=O)Cc2cc3cc(N)ccc3nc2-1 (centres undefined) .
true (1)

###

System: KM12
Run description: NCI tumour cell line growth inhibition, 48 h
Active and inactive are the calls of the source. No stated cut-off is given here; in the data, active = GI50 up to about 1.1 µM and inactive = higher.
Your reply should match one of these outcome classes. active, inactive

Tell me the recorded outcome of this test for CCOC(=O)C1C(=O)CC(C)(O)C(C(=O)OCC)C1c1ccc(N(C)C)cc1 (centres undefined) .
inactive

Tell me the recorded outcome of this test for COC1(OC)CC(CO)(CNc2nc(N)nc(Cl)c2/C=N\O)C1 .
inactive

Tell me the recorded outcome of this test for C/C(CC(=O)Nc1ccc(C)c(C)c1)=N\NC(N)=S .
inactive

Tell me the recorded outcome of this test for O=C(CN1C(=O)c2ccccc2C1=O)C(O)CN1C(=O)c2ccccc2C1=O (centres undefined) .
inactive

Tell me the recorded outcome of this test for Cc1ccccc1-n1c(=O)sc2c(=O)n(-c3ccccc3)c(=S)[nH]c21 .
inactive

Tell me the recorded outcome of this test for O=C(NC(=S)Nc1ccc(Br)cc1)c1ccc2c(c1)Sc1ccccc1O2 .
inactive

Tell me the recorded outcome of this test for CCCCN(CCCC)CC(C(=O)Nc1ccc([N+](=O)[O-])cc1[N+](=O)[O-])/C(C)=N\NC(=O)C[N+](C)(C)C (centres undefined) .
inactive

Tell me the recorded outcome of this test for N#CC(Sc1ccccc1)C(N)=O (centres undefined) .
inactive

Tell me the recorded outcome of this test for CCCCCCCCCCCCCC(=O)O[C@H]1CC[C@H](NC(=O)[C@H](OC)[C@H](O)[C@@H](O)[C@H](O)/C=C/C(C)C)C(=O)N(C)C1 [BENGAMIDE B] .
active

###

System: OVCAR-5
Run description: NCI tumour cell line growth inhibition, 48 h
Active and inactive are the calls of the source. No stated cut-off is given here; in the data, active = GI50 up to about 1.1 µM and inactive = higher.
Task for the reader: assign each of the following molecules its reported GI50.

# GI50 of COc1ccc(S(=O)(=O)c2nnc(S(=O)(=O)Cc3ccccc3)s2)cc1 = 25.8 µM (inactive)

# GI50 of O=C(CCCn1cnc([N+](=O)[O-])n1)NCCn1ccnc1[N+](=O)[O-] = > 100 µM (inactive)

# GI50 of N#CC(Sc1ccccc1)C(N)=O (stereo unspecified) = > 100 µM (inactive)

# GI50 of CC(C)(C)OC(=O)NC(Cc1ccccc1)C(=O)OCN1C(=O)C2C3C=CC(C2C1=O)C1C2C(=O)N(COC(=O)C(Cc4ccccc4)NC(=O)OC(C)(C)C)C(=O)C2C31 (stereo unspecified) = 53.3 µM (inactive)

# GI50 of CCOC(=O)NC1C2CC(=O)OC(O2)C1OC(C)=O (stereo unspecified) = > 100 µM (inactive)

# GI50 of CCCSS[C@H]1NC(=O)[C@H]1NC(=O)COc1ccccc1 = 59 µM (inactive)

# GI50 of CCc1cc2c(oc3cc(C)ccc32)c(=O)n1C = > 10 µM (inactive)

# GI50 of CCN(CC)CCOc1ccc(C(O)(Cc2ccc(OC)cc2)c2ccccc2)cc1 (stereo unspecified) = 20 µM (inactive)

# GI50 of Cc1ccc(C(C2C(=O)N(C)C(=O)N(C)C2=O)C(F)(F)C(=O)N(C)C)cc1 (stereo unspecified) = > 100 µM (inactive)

# GI50 of COc1cc([N+](=O)[O-])cc2c1NC(=O)C2(C)SC (stereo unspecified) = > 100 µM (inactive)

# GI50 of COC(=O)c1ccccc1CC(Cc1ccccc1)C(=O)OC (stereo unspecified) = 62.7 µM (inactive)

# GI50 of CCOC(=O)C1C(=O)CC(C)(O)C(C(=O)OCC)C1c1ccc(N(C)C)cc1 (stereo unspecified) = > 100 µM (inactive)

# GI50 of CSC12c3cc(C)n(-c4ccccc4)c3CC(C)(C)CN1C(=O)C2Oc1ccccc1 (stereo unspecified) = > 100 µM (inactive)

# GI50 of CC(=O)Nc1ccc2c(c1)[nH]c(=O)c1cc(Cl)ccc12 = 27 µM (inactive)

# GI50 of O=c1oc2ccc([N+](=O)[O-])cc2c(Nc2ccc3c(c2)Oc2ccccc2O3)c1[N+](=O)[O-] = 38 µM (inactive)

# GI50 of COC1OC(COC(C)=O)C(OC(C)=O)C(OC(C)=O)C1NC(=O)N(CCCl)N=O (stereo unspecified) = > 100 µM (inactive)

# GI50 of COc1cc(/C=N/N=C(\N)NO)cc(Cl)c1O = 35.3 µM (inactive)

# GI50 of O=C(CSSCC(=O)OCCS(=O)(=O)Nc1ccc(Br)cc1)OCCS(=O)(=O)Nc1ccc(Br)cc1 = 13.9 µM (inactive)

# GI50 of C[C@]12CC[C@@H]3c4ccc(O)cc4CC[C@H]3[C@@H]1CC[C@@H]2OC(=O)CCc1ccccc1 = 44.4 µM (inactive)

# GI50 of CC(=O)CC(=O)ON(C)C(C)=O = > 100 µM (inactive)

# GI50 of COc1c(Sc2ccccc2)cc(Sc2ccccc2)c2cccnc12 = 40.2 µM (inactive)

###

System: OVCAR-3
Run description: NCI tumour cell line growth inhibition, 48 h
The source made the active and inactive calls. No stated cut-off is given here; in the data, active = GI50 up to about 1.1 µM and inactive = higher.
Task for the reader: assign each of the following compounds its reported GI50.

# GI50 of O=C(CC(=O)C1CCOC1=O)C(=O)Nc1ccc(Cl)cc1 (stereo unspecified) = > 100 µM (inactive)

# GI50 of CC1(C)NC(C(=O)c2ccccc2)=[N+]([O-])C1(O)c1ccccc1 (stereo unspecified) = 95.3 µM (inactive)

# GI50 of CC(C)(C)OC(=O)NC(Cc1ccccc1)C(=O)OCN1C(=O)C2C3C=CC(C2C1=O)C1C2C(=O)N(COC(=O)C(Cc4ccccc4)NC(=O)OC(C)(C)C)C(=O)C2C31 (stereo unspecified) = 63.1 µM (inactive)

# GI50 of COc1cccc(-c2cccc(SC)n2)n1 = 20.8 µM (inactive)

# GI50 of COc1cc([N+](=O)[O-])cc2c1NC(=O)C2(C)SC (stereo unspecified) = 77.3 µM (inactive)

# GI50 of Cc1ccc(C(C2C(=O)N(C)C(=O)N(C)C2=O)C(F)(F)C(=O)N(C)C)cc1 (stereo unspecified) = > 100 µM (inactive)

# GI50 of CCN(CC)C(=O)c1cccc2c(OC)ccc(OC)c12 = > 100 µM (inactive)

# GI50 of Cc1cc(-c2nc3c(F)cccc3s2)ccc1N = > 100 µM (inactive)

# GI50 of COC1(OC)CC(CO)(CNc2nc(N)nc(Cl)c2/C=N\O)C1 = 21.7 µM (inactive)

# GI50 of N#C/C(=C\c1cn(Cc2ccccc2)c2ccccc12)c1nn(-c2ccccc2)c(N)c1C#N = 18.2 µM (inactive)

# GI50 of O=CC(NC(=O)N(CCCl)N=O)C(O)C(O)C(O)CO (stereo unspecified) = > 1250 µM (inactive)

# GI50 of CC(C)(C)[Si](C)(C)OCC1OC(n2cc(I)c(=O)[nH]c2=O)C(O[Si](C)(C)C(C)(C)C)C1O[Si](C)(C)C(C)(C)C (stereo unspecified) = 14.3 µM (inactive)

# GI50 of CCOC(=O)/C(C#N)=C\Sc1ccccc1 = 17.4 µM (inactive)

# GI50 of CC1=C(C(=O)Nc2ccccc2C)C(c2ccccc2O)C(C(=O)Nc2ccccc2C)=C(C)N1 = 17.3 µM (inactive)

# GI50 of C=CCOC1OC(CO[Si](C)(C)C(C)(C)C)C(OCc2ccccc2)C(OCc2ccccc2)C1OCc1ccccc1 (stereo unspecified) = 37.2 µM (inactive)

# GI50 of COc1nc(O)nc2c1C(c1ccc([N+](=O)[O-])cc1)c1c(OC)nc(O)nc1O2 = > 100 µM (inactive)

Data origin: ChEMBL document CHEMBL1201862
